cytotoxicity values for the compounds below.
# assayNotes: in vitro
# conditionContext: African green monkey
Value expressed in %; do not type the unit.

>>> observedmeasurement("CN1CCN(CCCN2c3ccccc3Sc3ccc(Cl)cc32)CC1 [Prochlorperazine dimaleate]")
103
>>> observedmeasurement("OCCOc1ccc(/C(=C(/CCCl)c2ccccc2)c2ccccc2)cc1 [Ospemifene]")
26.6

Item CN1CCN(CC/C=C2/c3ccccc3Sc3ccc(S(=O)(=O)N(C)C)cc32)CC1 [THIOTHIXENE] has what recorded cytotoxicity? 108

Try the compound COc1c(C)cnc(Cn2cnc3c(Cl)nc(N)nc32)c1C [CNF-2024] 21.1

----------
# System: SARS-CoV-2 (USA_WA1/2020)
# assayNotes: microbe, parasite or virus in culture
# Format: cell-based
# conditionContext: SARS-CoV-2 CPE assay, Vero E6 cells; read-out: CPE EC50
propertyName: pEC50
Expect pEC50 as a plain number equal to -log10 of the molar concentration.

>>> observedmeasurement("O=c1[nH]c2ccccc2n1C1CCN(Cc2ccc(-c3nc4cc5nc[nH]c5cc4nc3-c3ccccc3)cc2)CC1")
4.95
>>> observedmeasurement("Cl.Cl.Fc1ccc(-c2nc(C3CCNCC3)sc2-c2ccnc(NC3CC3)n2)cc1 [DBM 1285 dihydrochloride]")
4.90
>>> observedmeasurement("CCc1cc(-c2n[nH]c(C)c2-c2ccc3c(c2)OCCO3)c(O)cc1O")
4.85
>>> observedmeasurement("CCC(C)CNCC(=O)N1CCc2sccc2C1COc1cccc(C)c1 (centres unmarked)")
4.85
>>> observedmeasurement("COc1cc(N2CCN(C)CC2)ccc1Nc1ncc2c(n1)N(C)c1ccccc1C(=O)N2")
4.95

Item COc1cc(C(=O)NC(=N)Nc2ccc(C)c(NC(=O)c3ccc(-c4ccccc4)cc3)c2)cc(OC)c1OC has what recorded pEC50? 4.95

Try the molecule O=C1NC(=O)/C(=C/c2ccc3c(c2)OC(F)(F)O3)S1 4.90

Try the molecule CN(C)CC(=O)N1CCC(c2ccc(NC(=O)c3nc(C#N)c[nH]3)c(C3=CCCCC3)c2)CC1 4.85
